tested on: K.pneumoniae C1040; experiment: In vitro antibacterial activity, minimum inhibitory concentration; format: cell-based; details: Klebsiella pneumoniae; K.pneumoniae C1040; read-out: Minimum Inhibitory Concentration (MIC)
measurement.label: MIC (µg/mL)
Use µg/mL as the unit, but write only the number.

Query: Bench note: what MIC did `Nc1nc(/C(=N/O)C(=O)N[C@@H]2C(=O)N3C(C(=O)[O-])=C(C[n+]4ccc5[nH]c(=O)[nH]c5c4)CS[C@H]23)ns1` show?
Result: 1.56

Query: What value of MIC has been reported for the following compound? `CO/N=C(\C(=O)N[C@@H]1C(=O)N2C(C(=O)[O-])=C(C[n+]3ccc4[nH]c(=NC#N)[nH]c4c3)CS[C@H]12)c1nsc(N)n1`
Result: 0.025

Query: What MIC value was documented for this compound, `CO/N=C(\C(=O)N[C@@H]1C(=O)N2C(C(=O)[O-])=C(C[n+]3ccc4[nH]c(=O)[nH]c4c3)CS[C@H]12)c1nsc(N)n1` ?
Result: 0.004

Query: Record request: MIC value, item `CO/N=C(\C(=O)N[C@@H]1C(=O)N2C(C(=O)[O-])=C(C[n+]3ccc4c(c3)NC(=C[N+](=O)[O-])N4)CS[C@H]12)c1csc(N)n1`
Result: 0.025
